assayed target: MTNR1B (Homo sapiens, UniProt P49286)
Construct: purchased Promega (in-house HiBiT-GPCR construct library, NanoBRET)
Sequence (P49286 1-362): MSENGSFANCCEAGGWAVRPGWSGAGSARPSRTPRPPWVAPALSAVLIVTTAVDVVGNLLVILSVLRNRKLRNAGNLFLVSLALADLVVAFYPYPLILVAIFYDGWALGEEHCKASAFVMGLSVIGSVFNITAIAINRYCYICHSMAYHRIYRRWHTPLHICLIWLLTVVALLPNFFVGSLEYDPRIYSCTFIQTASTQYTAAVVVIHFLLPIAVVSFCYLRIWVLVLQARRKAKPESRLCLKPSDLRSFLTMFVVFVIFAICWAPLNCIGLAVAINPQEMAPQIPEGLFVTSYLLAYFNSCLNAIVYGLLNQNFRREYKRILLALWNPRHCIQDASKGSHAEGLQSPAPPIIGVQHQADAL
measurement notes: NanoBRET screen HiBiT-MTNR1B in HEK293
Type: binding
condition: MTNR1B; tracer 0.1μM
endpoint name: NanoBRET Fold Response
Numbers only.

Solved entries (count: 5):
| compound | endpoint name | reported |
| --- | --- | --- |
| CC(C)N(CC[C@H](c1ccccc1)c1cc(CCNC(=O)CCOCCOCCOCCOCCNC(=O)CCc2ccc3n2[B-](F)(F)[N+]2=C(c4ccc[nH]4)C=CC2=C3)ccc1O)C(C)C [Tolterodine-2-NB590] | NanoBRET Fold Response | 0.95 |
| O=C(CCc1ccc2n1[B-](F)(F)[N+]1=C(c3ccc[nH]3)C=CC1=C2)NCCOCCOCCNC(=O)OCCOCCN1CCN(C2=Nc3ccccc3Sc3ccccc32)CC1 [Quetiapine-a-2-NB590] | NanoBRET Fold Response | 1.11 |
| O=C(CCc1ccc2n1[B-](F)(F)[N+]1=C(c3ccc[nH]3)C=CC1=C2)NCc1ccc(C(=O)NCCOCCC(=O)N[C@@H]2CC[C@@]3(O)[C@H]4Cc5ccc(O)c6c5[C@@]3(CCN4CC3CC3)[C@H]2O6)cc1 [Naltrexone-3-NB590] | NanoBRET Fold Response | 0.94 |
| N#CN=C(NCCCOc1cccc(CN2CCCCC2)c1)NCCNC(=O)CCOCCOCCOCCOCCNC(=O)CCc1ccc2n1[B-](F)(F)[N+]1=C(c3ccc[nH]3)C=CC1=C2 [Aminopotentidine-2-NB590] | NanoBRET Fold Response | 0.99 |
| CN(C)CCC=C1c2ccccc2CCc2ccc(C(=O)NCCNC(=O)CCOCCOCCOCCOCCNC(=O)CCc3ccc4n3[B-](F)(F)[N+]3=C(c5ccc[nH]5)C=CC3=C4)cc21 [Amitriptyline-b-2-NB590] | NanoBRET Fold Response | 1.02 |

Turning to the following compound.
Task: Need NanoBRET Fold Response, item Cc1nc2n(c(=O)c1CCN1CCC(c3noc4cc(F)ccc34)CC1)CCCC2OC(=O)NCCOCCOCCOCCOCCNC(=O)CCc1ccc2n1[B-](F)(F)[N+]1=C(c3ccc[nH]3)C=CC1=C2 (stereo not drawn) [Risperidone-2-NB590]
Output: 0.99
